biological target: H-PGDS (Homo sapiens (Human), UniProt O60760); assay: H-PGDS Inhibitor Enzyme Immunoassay (EIA); type: biochemical; settings: 25 ng H-PGDS, 40 μM PGH2, 1 mM GSH; PGD2 quantified by EIA
Sequence (O60760 whole entry): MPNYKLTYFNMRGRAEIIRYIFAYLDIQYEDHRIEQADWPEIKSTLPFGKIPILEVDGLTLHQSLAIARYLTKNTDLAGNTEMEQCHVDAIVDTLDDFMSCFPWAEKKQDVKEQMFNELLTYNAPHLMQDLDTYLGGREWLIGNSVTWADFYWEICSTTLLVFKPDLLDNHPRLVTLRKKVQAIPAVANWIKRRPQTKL
quantity measured: pIC50
// pIC50: -log10(molar conc.)

Sample records with pIC50:
> print(dat)
                              line.notation                               test.target  quantity.measured  observed.value
1  c1ccc(-c2ncc(-c3cnc(-c4ccccn4)[nH]3)cn2)cc1  H-PGDS (Homo sapiens (Human), UniProt O60760)              pIC50            7.28
2  CCOC(=O)c1cc(-c2cnc(Oc3ccccc3)nc2)[nH]n1  H-PGDS (Homo sapiens (Human), UniProt O60760)              pIC50            6.89
3  c1ccc(Oc2ncc(-c3cnc(-c4cccnc4)[nH]3)cn2)cc1  H-PGDS (Homo sapiens (Human), UniProt O60760)              pIC50            6.43
4  c1ccc(-c2ncc(-c3cnc(-c4ccncc4)[nH]3)cn2)cc1  H-PGDS (Homo sapiens (Human), UniProt O60760)              pIC50            7.12

Consider the additional compound presented here.
Query block: So what does the record say about pIC50 for C(=C\c1ncc(-c2cnc(-c3ccccc3)nc2)[nH]1)/c1cccnc1 ?
Result block: 7.64

Data origin: patent US9126973B2
